Assay: method code SF-RC, from DOI: 10.1111/j.1399-3054.1990.tb08712.x
endpoint.name: logP
Answer with the value's number alone.

Task item: What value of measured logP is listed for c1ccc(CNc2ncnc3[nH]cnc23)cc1 ?
Reply: 1.57

====

# logP listing for each entry below
Test: method code SF-AS, from DOI: 10.1021/jf60220a002
Output spec: single numeric token, no unit.

Solved cases below.
INSERT INTO assay_data (compound, endpoint_name, assay_result) VALUES
  ('CCNP(=O)(OCC)O/N=C(/C#N)c1ccc(OC)cc1 (stereo not drawn)', 'logP', 2.39),
  ('CCOP(=O)(NC)O/N=C(/C#N)c1ccc(Cl)cc1 (stereo not drawn)', 'logP', 2.5);

Continue with the compound presented below.
Task item: // lookup logP for CCNP(=O)(OCC)ON=C(C#N)c1ccc([N+](=O)[O-])cc1 (stereo not drawn)
Reply: 1.76
